Values from ChEMBL document CHEMBL4387708

ASSAYED TARGET: UniProtKB P05177
Sequence (P05177 whole entry): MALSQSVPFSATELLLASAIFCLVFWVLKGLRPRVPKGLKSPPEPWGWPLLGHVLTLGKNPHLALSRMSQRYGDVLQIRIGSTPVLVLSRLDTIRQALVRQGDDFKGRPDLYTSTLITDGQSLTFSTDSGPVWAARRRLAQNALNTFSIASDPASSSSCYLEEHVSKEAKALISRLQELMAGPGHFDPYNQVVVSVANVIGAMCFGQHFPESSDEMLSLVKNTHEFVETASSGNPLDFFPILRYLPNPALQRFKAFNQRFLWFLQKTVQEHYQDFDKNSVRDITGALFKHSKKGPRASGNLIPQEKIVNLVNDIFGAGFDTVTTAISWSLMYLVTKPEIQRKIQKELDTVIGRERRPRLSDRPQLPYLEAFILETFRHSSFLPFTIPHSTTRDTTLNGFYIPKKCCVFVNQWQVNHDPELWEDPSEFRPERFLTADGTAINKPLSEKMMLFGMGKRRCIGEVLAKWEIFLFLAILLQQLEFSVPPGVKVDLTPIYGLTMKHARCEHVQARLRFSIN
READOUT KIND: IC50

Worked examples follow.
COC(=O)c1ccc(CSc2ccc3nc(N)sc3c2)cc1
10 to 25 µM
COC(=O)C1CCN(C(=O)c2ccc(CSc3ccc4nc(N)sc4c3)cc2)CC1
> 25 µM
CSc1ccc2nc(N)sc2c1
< 10 µM
Nc1nc2ccc(SC(F)(F)F)cc2s1
> 25 µM
Nc1nc2ccc(SCc3ccccc3)cc2s1
< 10 µM
N=C(N)c1ccc(OCCCCCOc2ccc(C(=N)N)cc2)cc1 [PENTAMIDINE]
> 25 µM

Kindly consider the entry below.
Identify IC50 associated with the compound COC(=O)C1CCN(C(=O)c2ccc(CNC(=O)c3ccc4nc(N)sc4c3)cc2)CC1
> 25 µM

* * *

MNTC at 72 h values by entry
METHOD NOTES: Cytotoxicity against human THP1 cells after 72 hrs by MTT assay
Format: cell-based, THP-1
CONDITION LABEL: read-out: NOAEL

COC(=O)C1CCN(C(=O)c2ccc(COc3ccc4nc(N)sc4c3)cc2)CC1
10 to 25 µM
Nc1nc2ccc(C(=O)N(CCO)Cc3ccccc3)cc2s1
> 25 µM
COc1ccc2nc(N)sc2c1
> 25 µM
N#Cc1ccc(COc2ccc3nc(N)sc3c2)cc1
10 to 25 µM
Nc1nc2c(C(=O)NCc3ccc(Cl)c(Cl)c3)cc(O)c(O)c2s1
> 25 µM
Nc1nc2ccc(C(=O)N(Cc3ccccc3)Cc3ccc(Cl)c(Cl)c3)cc2s1
> 25 µM

Identify MNTC at 72 h associated with the compound COC(=O)C1CCN(C(=O)c2ccc3nc(N)sc3c2)CC1
> 25 µM

Identify MNTC at 72 h associated with the compound Nc1nc2c(C(=O)N(Cc3ccccc3)Cc3ccc(Cl)c(Cl)c3)cc(O)c(O)c2s1
10 to 25 µM

Identify MNTC at 72 h associated with the compound COC(=O)C1CCN(C(=O)c2ccc(CNC(=O)c3ccc4nc(N)sc4c3)cc2)CC1
> 25 µM

* * *

METHOD NOTES: Mitochondrial toxicity in human 786-O cells measured after 6 hrs by MitoTracker Red chloromethyl-X-rosamine based assay
Format: cell-based, 786-0
IC50 at 6 h values by entry

Worked examples follow.
COC(=O)C1CCN(C(=O)c2ccc(CNC(=O)c3ccc4nc(N)sc4c3)cc2)CC1
< 10 µM
Nc1nc2c(C(=O)N(Cc3ccccc3)Cc3ccc(Cl)c(Cl)c3)cc(O)c(O)c2s1
> 25 µM
COC(=O)C1CCN(C(=O)c2ccc(COc3ccc4nc(N)sc4c3)cc2)CC1
> 25 µM
Nc1nc2ccc(C(=O)N(CCO)Cc3ccccc3)cc2s1
> 25 µM
Nc1nc2ccc(SCc3ccc(Cl)c(Cl)c3)cc2s1
> 25 µM

Kindly consider the entry below.
Identify IC50 at 6 h associated with the molecule Nc1nc2ccc(C(=O)NCc3ccccc3[N+](=O)[O-])cc2s1
< 10 µM

* * *

METHOD NOTES: Inhibition of N-terminal His-tagged Trypanosoma brucei pteridine reductase 1 using di-hydrobiopterine as substrate measured at 1 min interval for 50 mins in presence of NADPH
pIC50 values by entry
pIC50 here: minus log base 10 of the concentration, concentration in moles per litre.

Worked examples follow.
N#Cc1ccc(CSc2ccc3nc(N)sc3c2)cc1
6.46
Nc1nc2ccc(OCc3ccc(Cl)c(Cl)c3)cc2s1
5.47
COC(=O)C1CCN(C(=O)c2ccc(CSc3ccc4nc(N)sc4c3)cc2)CC1
6.03

Identify pIC50 associated with the compound Nc1nc2c(C(=O)N(Cc3ccccc3)Cc3ccc(Cl)c(Cl)c3)cc(O)c(O)c2s1
4.94

Identify pIC50 associated with the compound Nc1nc2ccc(C(=O)NCc3ccc(C(=O)NCc4ccccc4)cc3)cc2s1
5.16

* * *

METHOD NOTES: Cytotoxicity against human A549 cells after 48 hrs by Celltiter-glo assay
Type: cell-based
GI50 at 48 h values by entry

Worked examples follow.
Nc1nc2ccc(SCc3ccc(C(=O)NCc4ccccc4)cc3)cc2s1
< 10 µM
Nc1nc2ccc(C(=O)NCc3ccccc3[N+](=O)[O-])cc2s1
> 25 µM
COC(=O)C1CCN(C(=O)c2ccc(COc3ccc4nc(N)sc4c3)cc2)CC1
> 25 µM
Nc1nc2ccc(C(=O)NCc3ccc(Cl)c(Cl)c3)cc2s1
> 25 µM
COC(=O)C1CCN(C(=O)c2ccc(CNC(=O)c3ccc4nc(N)sc4c3)cc2)CC1
> 25 µM
N#Cc1ccc(COc2ccc3nc(N)sc3c2)cc1
10 to 25 µM
Nc1nc2ccc(S(=O)(=O)Cc3ccccc3)cc2s1
> 25 µM
COc1ccc(CN(Cc2ccc(Cl)c(Cl)c2)C(=O)c2ccc3nc(N)sc3c2)cc1OC
> 25 µM
Nc1nc2c(C(=O)NCc3ccc(Cl)c(Cl)c3)cc(O)c(O)c2s1
> 25 µM
Nc1nc2c(C(=O)NCc3ccccc3)cc(O)c(O)c2s1
10 to 25 µM

Kindly consider the entry below.
Identify GI50 at 48 h associated with the molecule N#Cc1ccc(CS(=O)(=O)c2ccc3nc(N)sc3c2)cc1
> 25 µM

* * *

ASSAYED TARGET: Pteridine reductase 1 (Leishmania major) (UniProt Q01782)
Sequence (Q01782 whole entry): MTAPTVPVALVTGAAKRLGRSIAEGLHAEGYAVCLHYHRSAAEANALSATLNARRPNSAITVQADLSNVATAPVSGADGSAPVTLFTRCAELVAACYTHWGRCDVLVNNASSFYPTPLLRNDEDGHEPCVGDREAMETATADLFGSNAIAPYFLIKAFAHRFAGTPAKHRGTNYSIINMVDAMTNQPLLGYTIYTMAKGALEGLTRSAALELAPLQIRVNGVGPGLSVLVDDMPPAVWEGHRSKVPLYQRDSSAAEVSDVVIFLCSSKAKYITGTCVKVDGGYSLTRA
METHOD NOTES: Inhibition of Leishmania major pteridine reductase 1 at 50 uM using di-hydrobiopterine as substrate in presence of NADPH relative to control
Activity calls are given as the source filed them. The calls are words filed in the database; no cut-off is given here.
READOUT KIND: inhibition

Worked examples follow.
Nc1nc2ccc(OCc3ccccc3)cc2s1
inactive
Nc1nc2c(C(=O)N(Cc3ccccc3)Cc3ccc(Cl)c(Cl)c3)cc(O)c(O)c2s1
> 60%
COc1ccc(CN(Cc2ccc(Cl)c(Cl)c2)C(=O)c2ccc3nc(N)sc3c2)cc1OC
inactive
COC(=O)C1CCN(C(=O)c2ccc(COc3ccc4nc(N)sc4c3)cc2)CC1
> 60%

Identify inhibition associated with the compound Nc1nc2c(O)cc(C(=O)NCc3ccc(Cl)c(Cl)c3)cc2s1
8.7%

Identify inhibition associated with the compound Nc1nc2ccc(SCc3ccc(Cl)c(Cl)c3)cc2s1
> 60%

Identify inhibition associated with the compound Nc1nc2ccc(SCc3ccccc3)cc2s1
> 60%

* * *

ASSAYED TARGET: Voltage-gated inwardly rectifying potassium channel KCNH2 (Homo sapiens)
METHOD NOTES: Displacement of Tracer Red from human ERG by fluorescence polarization assay
pIC50: −log10 of the molar value.
READOUT KIND: pIC50

Worked examples follow.
N#Cc1ccc(CS(=O)(=O)c2ccc3nc(N)sc3c2)cc1
< 4.60
CSc1ccc2nc(N)sc2c1
> 5.00
Nc1nc2ccc(SC(F)(F)F)cc2s1
4.60 to 5.00
Nc1nc2ccc(C(=O)NCCc3cccs3)cc2s1
> 5.00
COC(=O)c1ccc(COc2ccc3nc(N)sc3c2)cc1
4.60 to 5.00

Identify pIC50 associated with the compound COC(=O)C1CCN(C(=O)c2ccc(CNC(=O)c3ccc4nc(N)sc4c3)cc2)CC1
> 5.00

Identify pIC50 associated with the compound Nc1nc2ccc(C(=O)NCc3ccc(C(=O)NCc4ccccc4)cc3)cc2s1
< 4.60

Identify pIC50 associated with the compound Nc1nc2ccc(S(=O)(=O)Cc3ccc(Cl)c(Cl)c3)cc2s1
< 4.60

Identify pIC50 associated with the compound Nc1nc2ccc(C(=O)NCc3ccccc3)cc2s1
< 4.60

Identify pIC50 associated with the compound Nc1nc2ccc(C(=O)NCCc3c[nH]c4ccccc34)cc2s1
< 4.60

Identify pIC50 associated with the compound Nc1nc2ccc(C(=O)N(CCO)Cc3ccccc3)cc2s1
< 4.60

* * *

ASSAYED TARGET: Pteridine reductase 1 (Leishmania major)
Sequence (Q01782 whole entry): as above
METHOD NOTES: Inhibition of Leishmania major pteridine reductase 1 using di-hydrobiopterine as substrate in presence of NADPH
CONDITION LABEL: read-out: IC50
READOUT KIND: pIC50
pIC50 here: minus log base 10 of the concentration, concentration in moles per litre.

Worked examples follow.
Nc1nc2c(O)cc(C(=O)NCc3ccccc3)cc2s1
5.61
COC(=O)C1CCN(C(=O)c2ccc(CSc3ccc4nc(N)sc4c3)cc2)CC1
4.82
COC(=O)C1CCN(C(=O)c2ccc(CS(=O)(=O)c3ccc4nc(N)sc4c3)cc2)CC1
4.30
Nc1nc2ccc(C(=O)NCc3ccc(C(=O)NCc4ccccc4)cc3)cc2s1
4.72
Nc1nc2ccc(OC(F)(F)F)cc2s1
4.03

Identify pIC50 associated with the compound Nc1nc2ccc(C(=O)NCc3ccc(Cl)c(Cl)c3)cc2s1
4.82

Identify pIC50 associated with the compound COC(=O)c1ccc(CS(=O)(=O)c2ccc3nc(N)sc3c2)cc1
4.18

Identify pIC50 associated with the compound CCc1nc(N)nc(N)c1-c1ccc(Cl)cc1
4.87
